Recorded values, source ChEMBL document CHEMBL1146261.

# SYSTEM UNDER TEST: Beta-secretase 1 (Homo sapiens)
# Sequence (P56817 whole entry): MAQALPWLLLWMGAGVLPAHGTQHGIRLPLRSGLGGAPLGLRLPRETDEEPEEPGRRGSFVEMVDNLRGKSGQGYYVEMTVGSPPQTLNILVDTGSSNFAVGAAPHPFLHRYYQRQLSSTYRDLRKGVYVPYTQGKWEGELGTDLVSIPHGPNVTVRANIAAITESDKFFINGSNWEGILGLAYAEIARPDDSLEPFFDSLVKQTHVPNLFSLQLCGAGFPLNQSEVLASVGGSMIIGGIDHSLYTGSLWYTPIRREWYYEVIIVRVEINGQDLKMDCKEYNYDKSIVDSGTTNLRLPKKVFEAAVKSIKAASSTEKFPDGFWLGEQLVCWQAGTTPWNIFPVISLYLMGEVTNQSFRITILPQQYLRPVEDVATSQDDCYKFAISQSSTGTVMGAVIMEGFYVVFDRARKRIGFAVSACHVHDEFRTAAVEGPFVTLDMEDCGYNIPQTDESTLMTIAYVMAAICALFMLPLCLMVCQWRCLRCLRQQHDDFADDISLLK
# METHOD NOTES: Inhibition of BACE expressed in HEK293 cells
pEC50: −log10 of the molar value.
Could you label it satisfied if measured pEC50 is 8 or higher, and not satisfied otherwise?

molecule=CCCC(CCC)S(=O)(=O)C[C@@H](NC(=O)c1ccc(C)cc1)C(=O)N[C@@H](Cc1cc(F)cc(F)c1)[C@H](O)CNCc1cccc(CC)c1 label="not satisfied"
molecule=CCCC(CCC)S(=O)(=O)C[C@@H](NC(=O)c1ccc(C(F)(F)F)cc1)C(=O)N[C@@H](Cc1cc(F)cc(F)c1)[C@H](O)CNCc1cccc(CC)c1 label="not satisfied"
molecule=CCCCS(=O)(=O)C[C@@H](NC(=O)OC)C(=O)N[C@@H](Cc1cc(F)cc(F)c1)[C@H](O)CNCc1cccc(CC)c1 label=satisfied
molecule="CCCCS(=O)(=O)CC(NC(=O)OCCC#N)C(=O)N[C@@H](Cc1cc(F)cc(F)c1)[C@H](O)CNCc1cccc(CC)c1 (some centres not stated)" label=satisfied
molecule=CCCCS(=O)(=O)C[C@@H](NC(=O)COC)C(=O)N[C@@H](Cc1cc(F)cc(F)c1)[C@H](O)CNCc1cccc(CC)c1 label=satisfied
molecule=CCCCS(=O)(=O)C[C@@H](NC(=O)OCc1ccncc1)C(=O)N[C@@H](Cc1cc(F)cc(F)c1)[C@H](O)CNCc1cccc(CC)c1 label=satisfied
